test system: Adenosine kinase (Homo sapiens, UniProt P55263)
Sequence (P55263 whole entry): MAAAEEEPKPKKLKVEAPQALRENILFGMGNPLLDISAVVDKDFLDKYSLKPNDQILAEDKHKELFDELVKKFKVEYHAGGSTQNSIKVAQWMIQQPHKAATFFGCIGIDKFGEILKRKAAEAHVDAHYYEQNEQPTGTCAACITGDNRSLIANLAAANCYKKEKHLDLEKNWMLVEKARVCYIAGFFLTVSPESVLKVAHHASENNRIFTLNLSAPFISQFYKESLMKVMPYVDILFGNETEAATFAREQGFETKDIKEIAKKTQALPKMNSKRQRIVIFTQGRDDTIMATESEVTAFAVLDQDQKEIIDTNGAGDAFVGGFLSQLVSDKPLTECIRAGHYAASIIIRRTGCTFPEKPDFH
pIC50: −log10 of the molar value.
reported metric: pIC50

a. Nc1ncnc2nc(-c3ccc(N4CCOCC4)nc3)cnc12
b. CN(C)c1ccc(C#Cc2ncnc3c2c(-c2cccc(Br)c2)nn3C)cn1
Query: Given the two records a and b , choose the one whose pIC50 value is lower. Your choice should be expressed through its label.
Reply: a
(a: 6.34, b: 8.12)

----------
pIC50: −log10 of the molar value.
This document collects pIC50 values reported for Adenosine kinase (Homo sapiens, UniProt P55263).
reported metric: pIC50

Worked cases, answers included:
item_smiles=c1ccc(CCNc2ncnc3nc(-c4ccc(N5CCOCC5)nc4)cnc23)cc1 test_system="Adenosine kinase (Homo sapiens, UniProt P55263)" experimental_value=6.92
item_smiles=c1ccc(CCCCNc2ncnc3nc(-c4ccc(N5CCOCC5)nc4)cnc23)cc1 test_system="Adenosine kinase (Homo sapiens, UniProt P55263)" experimental_value=7.09

P. c1ccc(CCCNc2ncnc3nc(-c4ccc(N5CCOCC5)nc4)cnc23)cc1
Q. CN(Cc1ccccc1)c1c(N)ncnc1C#Cc1ccc(N2CCOCC2)nc1
Query: P or Q : whose pIC50 is greater? Your choice should be expressed through its label.
Reply: Q
